Give EC50 for every item shown.
- System tested: A. baumannii PBP2 (Acinetobacter baumannii)
- Sequence (D0C8Z9 whole entry): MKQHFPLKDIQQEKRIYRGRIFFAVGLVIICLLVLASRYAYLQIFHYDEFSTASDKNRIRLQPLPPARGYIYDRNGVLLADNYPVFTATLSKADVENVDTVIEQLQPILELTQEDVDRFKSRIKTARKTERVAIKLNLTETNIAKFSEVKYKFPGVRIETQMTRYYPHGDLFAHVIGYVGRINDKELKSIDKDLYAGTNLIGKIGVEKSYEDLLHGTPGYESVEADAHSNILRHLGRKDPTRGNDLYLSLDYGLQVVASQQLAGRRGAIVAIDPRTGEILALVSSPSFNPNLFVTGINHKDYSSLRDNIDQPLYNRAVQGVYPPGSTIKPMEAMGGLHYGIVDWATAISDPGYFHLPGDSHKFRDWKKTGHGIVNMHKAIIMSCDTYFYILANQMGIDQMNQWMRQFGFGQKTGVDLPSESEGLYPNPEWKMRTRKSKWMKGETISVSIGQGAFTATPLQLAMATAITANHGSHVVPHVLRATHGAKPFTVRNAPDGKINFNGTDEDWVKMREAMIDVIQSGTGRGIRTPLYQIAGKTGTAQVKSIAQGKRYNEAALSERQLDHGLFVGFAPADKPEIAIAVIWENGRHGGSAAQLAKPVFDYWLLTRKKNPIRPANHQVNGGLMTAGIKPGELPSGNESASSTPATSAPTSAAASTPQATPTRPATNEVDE
- Assay protocol: Bocillin-FL competition binding via gel filtration, A. baumannii PBP2

Ask | Name the reported EC50 value associated with the compound O=C(O)c1c(F)ccc2c1OB(O)[C@@H](NC(=O)C(NC(=O)N1CCN(C3CCN(C(=O)Cc4cccc(O)c4)CC3)C(=O)C1=O)c1cc(F)c(O)c(O)c1Cl)C2 (stereo partly shown)
Reply | < 10 µM

Ask | Name the reported EC50 value associated with the compound O=C(O)c1c(F)ccc2c1OB(O)[C@@H](NC(=O)[C@H](NC(=O)N1CCN(C3CCN(Cc4cc(O)ccc4F)CC3)C1=O)c1cc(F)c(O)c(O)c1Cl)C2 (single isomer, unassigned)
Reply | 10 to 50 µM

Ask | Name the reported EC50 value associated with the compound O=C(NCCCN1CCN(C(=O)NC(C(=O)N[C@H]2Cc3ccc(F)c(C(=O)O)c3OB2O)c2cc(F)c(O)c(O)c2Cl)C(=O)C1=O)c1cc(O)c(F)c(O)c1F (stereo partly shown)
Reply | 10 to 50 µM

Ask | Name the reported EC50 value associated with the compound O=C(O)c1c(F)ccc2c1OB(O)[C@@H](NC(=O)[C@H](NC(=O)N1CCN(C3CCN(Cc4cc(O)cc(F)c4)CC3)C1=O)c1cc(F)c(O)c(O)c1Cl)C2 (single isomer, unassigned)
Reply | 10 to 50 µM

Ask | Name the reported EC50 value associated with the compound O=C(O)c1c(F)ccc2c1OB(O)[C@@H](NC(=O)[C@H](NC(=O)N1CCN(C3CCN(C(=O)Nc4cc(O)cc(F)c4)CC3)C1=O)c1cc(F)c(O)c(O)c1Cl)C2 (single isomer, unassigned)
Reply | < 10 µM

Ask | Name the reported EC50 value associated with the compound O=C(NCCCN1CCN(C(=O)NC(C(=O)N[C@H]2Cc3ccc(F)c(C(=O)O)c3OB2O)c2cc(F)c(O)c(O)c2Cl)C(=O)C1=O)c1c(F)ccc(O)c1F (stereo partly shown)
Reply | 10 to 50 µM

Ask | Name the reported EC50 value associated with the compound O=C(O)c1c(F)ccc2c1OB(O)[C@@H](NC(=O)[C@H](NC(=O)N1CCN(C3CCN(C(=O)c4cc(O)c(O)c(Cl)c4)CC3)C1=O)c1ccc(P(=O)(O)O)cc1)C2
Reply | < 10 µM

Ask | Name the reported EC50 value associated with the compound O=C(NCCCN1CCN(C(=O)NC(C(=O)N[C@H]2Cc3ccc(F)c(C(=O)O)c3OB2O)c2cc(F)c(O)c(O)c2Cl)C(=O)C1=O)c1ccc(O)c(Cl)c1F (stereo partly shown)
Reply | < 10 µM

Ask | Name the reported EC50 value associated with the compound O=C(NCCN1CCN(C(=O)N[C@@H](C(=O)N[C@H]2Cc3ccc(F)c(C(=O)O)c3OB2O)c2cc(F)c(O)c(O)c2Cl)C(=O)C1=O)Nc1cccnc1
Reply | 10 to 50 µM

Ask | Name the reported EC50 value associated with the compound O=C(O)c1c(F)ccc2c1OB(O)[C@@H](NC(=O)C(NC(=O)N1CCN(C3CCN(C(=O)c4ccc(O)cc4O)CC3)C(=O)C1=O)c1cc(F)c(O)c(O)c1Cl)C2 (stereo partly shown)
Reply | < 10 µM

###

- System: N. gonorrhoeae WHO L
- Assay protocol: Liquid broth MIC in Fastidious broth
- Experimental conditions: Neisseria gonorrhoeae, read-out: Minimum Inhibitory Concentration (MIC), N. gonorrhoeae WHO L
Endpoint label: MIC

Ask | Name the reported MIC value associated with the compound O=C(O)c1c(F)ccc2c1OB(O)[C@@H](NC(=O)C(NC(=O)N1CCN(Cc3ccc(O)c(O)c3Cl)C1=O)c1ccc(P(=O)(O)O)cc1)C2 (stereo partly drawn) [Example 46]
Reply | 4 to 8 µg/mL

Ask | Name the reported MIC value associated with the compound CS(=O)(=O)N1CCC[C@@H]1C(=O)N[C@@H](C(=O)N[C@H]1Cc2cccc(C(=O)O)c2OB1O)c1ccc(P(=O)(O)O)cc1 [Example 35]
Reply | 16 to 32 µg/mL

Ask | Name the reported MIC value associated with the compound CCN1CCN(C(=O)NC(C(=O)N[C@H]2Cc3cccc(C(=O)O)c3OB2O)c2ccc(P(=O)(O)O)cc2)C1=O (stereo partly drawn) [Example 42]
Reply | 1 to 2 µg/mL

Ask | Name the reported MIC value associated with the compound O=C(NCCN1CCN(C(=O)NC(C(=O)N[C@H]2Cc3ccc(F)c(C(=O)O)c3OB2O)c2cc(F)c(O)c(O)c2Cl)C(=O)C1=O)Nc1cccc(O)c1 (stereo partly drawn) [Example 220]
Reply | > 64 µg/mL

Ask | Name the reported MIC value associated with the compound CN1CCC[C@H]1C(=O)NC(C(=O)N[C@H]1Cc2cccc(C(=O)O)c2OB1O)c1ccc(P(=O)(O)O)cc1 (stereo partly drawn) [Example 66]
Reply | 16 to 32 µg/mL

Ask | Name the reported MIC value associated with the compound CN(CCN1CCN(C(=O)N[C@@H](C(=O)N[C@H]2Cc3ccc(F)c(C(=O)O)c3OB2O)c2cc(F)c(O)c(O)c2Cl)C(=O)C1=O)Cc1cccnc1 [Example 201]
Reply | > 64 µg/mL
